Origin of values: paper PMC11110755

Target: Tte preQ1-Riboswitch aptamer domain
Assay: MST off-target counter screen, preQ1-riboswitch aptamer domain
Assay type: binding, Thermoanaerobacter tengcongensis
Conditions: 20 nM Cy5-labelled aptamer; read-out: KD preQ1 riboswitch (MST)
pKd: −log10 of the molar value.
Metric: pKd

| Compound | Meas Value |
| --- | --- |
| Nc1nc(N2CCN(Cc3c(Cl)ccc(O)c3Cl)CC2)cc(=O)[nH]1 [Compound 9] | 5.11 |

* * *

Target: HCV IRES subdomain IIa
Type: binding, hepatitis C virus
Details: 30 nM Cy5-labelled RNA, 10 mM HEPES pH 7.0, 2 mM MgCl2, 2% DMSO; ≥ = no saturation; n.b. no binding observed; read-out: MST KD
Metric: Kd (µM)

| Compound | Operator | Meas Value |
| --- | --- | --- |
| NC1=NC(c2cn[nH]c2-c2cccc(O)c2)n2c(nc3ccccc32)N1 (stereo not drawn) [Compound 13] | ≥ | 100 |
| CN(C)CCCn1c(N)nc2ccc3c(c21)CC(CN(C)C)CO3 (stereo not drawn) [Compound 5] | = | 5.2 |
| Nc1cc(-c2ccc3[nH]ncc3c2)c2cc[nH]c2n1 [Compound 12] | ≥ | 50 |
| COc1ccc2c(C)nc(NC(=N)N)nc2c1 [Compound 8c] | = | 134 |
| N=C(N)NC(=O)c1nc(Cl)c(N)nc1N [Compound 26, amiloride, reference compound] | ≥ | 100 |
| CCOc1ccc2c(C)nc(NC(=N)N)nc2c1 [Compound 8a] | = | 189 |
| CC(C)NCC(O)COc1ccc2[nH]cc(CCN)c2c1 (stereo not drawn) [Compound 11] | ≥ | 100 |
| CCOc1ccc2c(C)nc(NC(=N)NC)nc2c1 [Compound 8] | ≥ | 440 |
| CNC(=N)Nc1nc(C)c2ccc(OC)cc2n1 [Compound 8b] | = | 88 |

* * *

Tested on: HCV IRES subdomain IIa
Assay: FRET assay monitoring ligand-induced conformational change of Cy3/Cy5-labelled HCV IRES subdomain IIa
Type: biochemical, hepatitis C virus
Conditions: 100 nM Cy3/Cy5-labelled RNA, 10 mM HEPES pH 7.0, 2 mM MgCl2, 2% DMSO; ≥ = lower limit
pEC50: −log10 of the molar value.
Reported pEC50 values for a set of molecules
Metric: pEC50

| Molecule | Operator | Meas Value |
| --- | --- | --- |
| N=C(N)NC(=O)c1nc(Cl)c(N)nc1N [Compound 26, amiloride, reference compound] | ≤ | 3.30 |
| CCOc1ccc2c(C)nc(NC(=N)NC)nc2c1 [Compound 8] | = | 3.38 |
| NC(=O)c1c[nH]c2ccc(NC(=O)CCc3cc4n(n3)CCCNC4)cc12 [Compound 10] | ≤ | 3.30 |
| Nc1cc(-c2ccc3[nH]ncc3c2)c2cc[nH]c2n1 [Compound 12] | ≤ | 3.52 |
| Nc1nc(N2CCN(Cc3c(Cl)ccc(O)c3Cl)CC2)cc(=O)[nH]1 [Compound 9] | = | 3.66 |
| CN(C)CCCn1c(N)nc2ccccc21 [Compound 4] | = | 4.11 |
| NC1=NC(c2cn[nH]c2-c2cccc(O)c2)n2c(nc3ccccc32)N1 (stereo not drawn) [Compound 13] | ≤ | 3.00 |
| CNC(=N)Nc1nc(C)c2ccc(OC)cc2n1 [Compound 8b] | = | 4.21 |
| CC(C)NCC(O)COc1ccc2[nH]cc(CCN)c2c1 (stereo not drawn) [Compound 11] | ≤ | 3.30 |
| CN(C)CCCn1c(N)nc2ccc3c(c21)CC(CN(C)C)CO3 (stereo not drawn) [Compound 5] | = | 5.31 |
| CCOc1ccc2c(C)nc(NC(=N)N)nc2c1 [Compound 8a] | = | 4.06 |
| COc1ccc2c(C)nc(NC(=N)N)nc2c1 [Compound 8c] | = | 3.92 |
